test system: 786-0 renal; assay: NCI-60 one-dose screen, 48 h (100 = growth as untreated, 0 = no growth, -100 = all killed); conditions: 10 µM unless noted
Compounds without any hit were thinned out: in the full panel of roughly 83,000, 20% have a hit. Activity calls are given as the source filed them. Rule for the calls: active = growth percent below 10; inactive = the rest.
Quantity: growth

compound=Cc1c(CN)cc(-c2ccc(Cl)cc2)n1-c1ccccc1 quantity=growth result="90.8% (inactive)"
compound=COc1cc(-c2nc3cc(Cl)c(Cl)cc3[nH]2)ccc1OCC(=O)N=Nc1c(O)[nH]c2ccc(Cl)cc12 quantity=growth result="2.74% (active)"
compound=COc1ccc2cc(-c3ccnc4c(N=Nc5ccc(Cl)cc5)c(N)nn34)ccc2c1 quantity=growth result="106% (inactive)"
compound="N#Cc1cccc(C2C3=C(COC3=O)N(CCO)c3cc4c(cc32)OCO4)c1 (stereo not given)" quantity=growth result="24.9% (inactive)"
compound=Nn1c(=O)c(=O)[nH]c2c(cnn2-c2ccccc2)c1=O quantity=growth result="103% (inactive)"

Exam item: I would be grateful if you could share the reported growth for C[n+]1ccc(CCc2c[nH]c3ccccc23)cc1 .
Marked response: 100% (inactive)

Exam item: I would be grateful if you could share the reported growth for COc1ccc(/C=C/C(c2cc(OC)c(OC)c(OC)c2)n2ccnc2)cc1O (stereo not given) .
Marked response: 34% (inactive)

Exam item: I would be grateful if you could share the reported growth for CC1=CC(c2ccco2)=C2C(N)=NNC2N1 (stereo not given) .
Marked response: 97.6% (inactive)

Exam item: I would be grateful if you could share the reported growth for CN1CCN(Cc2ccc(NC(=O)c3cncc(C#Cc4cnc(N)c5ncccc45)c3)cc2C(F)(F)F)CC1 .
Marked response: -82.3% (active)

Exam item: I would be grateful if you could share the reported growth for COC(=O)c1c2c(n3ccccc13)C(=O)c1ccccc1C2=O .
Marked response: 71.5% (inactive)

Exam item: I would be grateful if you could share the reported growth for COc1ccc(/C=C/C(=O)c2ccc(NC(=O)CSc3nc4c([nH]3)c(=O)n(C)c(=O)n4C)cc2)cc1OC .
Marked response: 82.3% (inactive)

Exam item: I would be grateful if you could share the reported growth for CCOC(=O)c1c(C)nc2ccccc2c1/C=C/c1cccs1 .
Marked response: 89.7% (inactive)

Exam item: I would be grateful if you could share the reported growth for CCOC(=O)C1=C(C)/C(=C\c2[nH]c(C)c(C(=O)OCC)c2C)N=C1C .
Marked response: 98.9% (inactive)

====

system: CCRF-CEM leukemia; test: NCI-60 one-dose screen, 48 h; settings: 10 µM unless noted
About 83,000 compounds went through this panel and 20% of them were active in at least one assay; those are over-represented in the sample as a whole. Calls of active or inactive are those of the source. How the source made its calls: active means growth percent below 10; inactive means the rest.
Please reply with one of these outcomes: t (active), f (inactive)

Consider the worked cases shown below.
compound=O=C1Nc2c(C(=O)O)cccc2/C1=N/c1n[nH]c(=S)s1 target_of_assay="CCRF-CEM leukemia" class=f
compound=C[C@@H]1O[C@@H](O[C@@H]2C[C@H](c3ccc4c(c3O)C(=O)C3=C(C4=O)[C@@]4(O)C(=O)C[C@](C)(O)C[C@@]4(O)C=C3)O[C@H](C)[C@H]2O)CC[C@@H]1O[C@H]1C[C@@H](O)[C@H](O)[C@@H](C)O1 target_of_assay="CCRF-CEM leukemia" class=f
compound="CCN1C(=O)N(CC)C2C1NN=c1s/c(=C\\c3ccc[nH]3)c(=O)n12 (stereo not given)" target_of_assay="CCRF-CEM leukemia" class=t
compound="CC(=O)OC(c1ccccc1)C1CCOC1=O (stereo not given)" target_of_assay="CCRF-CEM leukemia" class=f
compound=CCOC(=O)c1[nH]c2c(c1C)-c1[nH]c(=O)c(S(=O)(=O)c3ccccc3)cc1SC2 target_of_assay="CCRF-CEM leukemia" class=f

Exam item: Assay result, entry CC(C)(C)n1cc(-c2ccnc(NCCCNS(=O)(=O)c3cccc4ccccc34)c2)c(-c2cccc(F)c2)n1 — outcome?
Marked response: f
